These entries and their values trace back to patent US10414754B2.

# Tested on: RS4;11 leukaemia tumour line
# experiment: In vitro cytotoxicity (MTT) on RS4;11
# Type: cell-based
# condition.description: Homo sapiens; RS4;11 cells, 48 hours exposure
Structures can show the parent of a compound that is named as a salt.
metric: IC50 (nM)
Express the result in nM but write the number alone.

## Input Returns the measured IC50 for the input molecule. Input: Cn1ccc2cc(N(C(=O)c3cc(-c4cc5c(cc4C(=O)N4Cc6ccccc6C[C@H]4CCCN4CCOCC4)OCO5)n4c3CCCC4)c3ccc(O)cc3)cnc21 [Example 69, hydrochloride]
## Output 1.38

## Input Returns the measured IC50 for the input molecule. Input: Cc1ccc(N(C(=O)c2cc(-c3cc(F)ccc3C(=O)N3Cc4ccccc4C[C@H]3C)n3c2CNCC3)c2ccc(O)cc2)cc1F [Example 10, hydrochloride]
## Output 439

## Input Returns the measured IC50 for the input molecule. Input: `CN(C(=O)c1cc(-c2cc3c(cc2C(=O)N2CCc4ccccc4C2)OCO3)n2ccccc12)c1ccc(O)cc1`
## Output 1500

## Input Returns the measured IC50 for the input molecule. Input: `O=C(c1ccc(Cl)cc1-c1cc(C(=O)N(c2ccc(O)cc2)c2ccc3c(ccn3CCN3CCOCC3)c2)c2n1CCCC2)N1CCc2ccccc2C1`
## Output 251

## Input Returns the measured IC50 for the input molecule. Input: C[C@@H]1Cc2ccccc2CN1C(=O)c1cc2c(cc1-c1cc(C(=O)N(c3ccncc3)c3ccc(O)cc3)c3n1CCCC3)OCO2 [Example 42, hydrochloride]
## Output 57.6

## Input Returns the measured IC50 for the input molecule. Input: O=C(c1cc(-c2ccccc2C(=O)N2Cc3ccccc3C[C@H]2CCN2CCOCC2)n2c1CCCC2)N(c1ccccc1)c1ccc(O)cc1 [Example 20, hydrochloride]
## Output 205

## Input Returns the measured IC50 for the input molecule. Input: `C[C@@H]1Cc2ccccc2CN1C(=O)c1cc2c(cc1-c1cc(C(=O)N(c3ccc(O)cc3)c3cnn(C)c3)c3n1CCCC3)OCCO2`
## Output 24.7

## Input Returns the measured IC50 for the input molecule. Input: `CN(C(=O)c1cc(-c2cc3c(cc2C(=O)N2CCc4ccccc4C2)OCO3)n2c1CCCC2)c1ccc(O)cc1`
## Output 1340

## Input Returns the measured IC50 for the input molecule. Input: O=C(c1cc(-c2cc3c(cc2C(=O)N2Cc4ccccc4C[C@H]2CCN2CCOCC2)OCO3)n2cccnc12)N(c1ccccc1)c1ccc(O)cc1 [Example 22, hydrochloride]
## Output 263

## Input Returns the measured IC50 for the input molecule. Input: O=C(c1cc(-c2cc3c(cc2C(=O)N2Cc4ccccc4C[C@H]2CCN2CCCC(F)(F)C2)OCO3)n2c1CCCC2)N(c1ccccc1)c1ccc(O)cc1 [Example 41, hydrochloride]
## Output 294

## Input Returns the measured IC50 for the input molecule. Input: COc1ccc(C(=O)N2Cc3ccccc3C[C@H]2CCN2CCOCC2)c(-c2cc(C(=O)N(c3ccccc3)c3ccc(O)cc3)c3n2CCCC3)c1 [Example 28, hydrochloride]
## Output 112

## Input Returns the measured IC50 for the input molecule. Input: C[C@@H]1Cc2ccccc2CN1C(=O)c1cc2c(cc1-c1cc(C(=O)N(c3ccc(O)cc3)c3ccc4c(ccn4C)c3)c3n1CCN(C)C3)OCCO2 [Example 6, hydrochloride]
## Output 161
